Measured IC50, listed per entry.
target: SARS-CoV-2 M^pro (Severe acute respiratory syndrome coronavirus 2, UniProt P0DTD1); construct: also known as 3-chymotrypsin-like cysteine protease (3CL^pro) and nonstructural protein 5 (nsp5); assay: biochemical
*1 amine or outer side, *2 acyl side, *3 side chain or, on linkers, in order; H or OH if unused. Where a SMILES comes first, the peptide text is derived from it. Bridges are numbered along the chain shown (N, C = ends). [ ]: non-standard residue; d: D form. X1 = O=C([C@@H]1CCC[C@@H]1N[*:1])[*:2]

In the examples that follow, each entry is paired with its recorded IC50.
COMPOUND | TESTED_SYSTEM | VALUE
CC(C)C[C@@H]1NC(=O)[C@@H](Cc2ccc(O)cc2)NC(=O)CSC[C@H](C(N)=O)NC(=O)[C@H](Cc2ccccc2)NC(=O)[C@H](Cc2c[nH]cn2)NC(=O)[C@@H]2CCCN2C(=O)[C@H](CC(N)=O)NC(=O)[C@@H]2CCC[C@@H]2NC(=O)[C@H]([C@@H](C)O)NC(=O)[C@H](Cc2c[nH]cn2)NC1=O [BM4, ^AcyLHTβ^1NPHFc-NH2] ({CH2CO}-[dY]LHT[X1]NPHF[dC]-NH2; thioether N-10) | SARS-CoV-2 M^pro (Severe acute respiratory syndrome coronavirus 2, UniProt P0DTD1) | > 8 µM
CC(C)C[C@@H]1NC(=O)[C@H](Cc2c[nH]cn2)NC(=O)[C@H](Cc2ccc(O)cc2)NC(=O)[C@H](C)NC(=O)[C@H](CC(=O)O)NC(=O)[C@H](Cc2ccccc2)NC(=O)[C@@H](Cc2ccc(O)cc2)NC(=O)CSC[C@H](C(N)=O)NC(=O)[C@H](CCCNC(=N)N)NC(=O)[C@H](C)NC(=O)[C@H](CC(N)=O)NC1=O [BM7A, ^AcyFDA YHLNA Rc-NH2] ({CH2CO}-[dY]FDAYHLNAR[dC]-NH2; thioether N-11) | SARS-CoV-2 M^pro (Severe acute respiratory syndrome coronavirus 2, UniProt P0DTD1) | > 25 µM

# context switch: different compound, same IC50
Exercise: Indicate its recorded IC50; the compound in question is CC(C)C[C@@H]1NC(=O)[C@H](C)NC(=O)[C@H](CC(N)=O)NC(=O)[C@H](CC(=O)O)NC(=O)[C@H](Cc2ccc(O)cc2)NC(=O)[C@H](CCCNC(=N)N)NC(=O)[C@H](Cc2c[nH]cn2)NC(=O)[C@H](Cc2ccccc2)NC(=O)[C@@H](Cc2ccc(O)cc2)NC(=O)CSC[C@H](C(N)=O)NC(=O)[C@H](Cc2ccc(O)cc2)NC(=O)[C@H](C(C)C)NC1=O [BM3A, ^AcyFHRYDNA LVYc-NH2] ({CH2CO}-[dY]FHRYDNALVY[dC]-NH2; thioether N-12)
Key: > 25 µM
